# IC50 per record follows
test system: E. coli BW25113 ΔtolC growth inhibition, OD615; experiment: growth inhibitors of E. coli tolC mutant, dose response, strain BW25113 ΔtolC::kan (AID 617);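 further: growth read after 20 h at 37 °C with compound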

Here are 3 compounds together with their reported answers.
>>> measured_value("Clc1ccc(OCCN2CCN(c3ncnc4sccc34)CC2)cc1")
"16.1 µM"
>>> measured_value("O=C1CCCc2nc3nc4ccccc4n3cc21")
"17 µM"
>>> measured_value("CN(Cc1ccccc1)Cc1nc2c(c(=O)n(C)c(=O)n2C)n1CCCc1ccccc1")
"14.9 µM"

Task item: Fill blank: measured IC50 of the compound O=C(COc1ccc(Cl)cc1)Nc1nnc(-c2ccc3c(c2)CCCC3)o1 is ____.
Reply: 0.25 µM

Task item: Dear colleague, I am looking for the recorded IC50 of the following compound: CNc1ccc(C(O)(C(F)(F)F)C(F)(F)F)cc1C(O)(C(F)(F)F)C(F)(F)F
Reply: 6.95 µM

Task item: Entry under review: CCOc1cc(S(=O)(=O)N2CCN(Cc3ccccc3)CC2)ccc1Br . Reported IC50?
Reply: 19.3 µM

Task item: Data request, read-out IC50, for Cc1ccc(Nc2nc(N)nc(CN3CCN(c4ccccc4)CC3)n2)cc1Cl
Reply: 5.97 µM

Task item: Give its IC50 value. Item: CCOc1cccc(NC(=O)C2CC(=O)N(C)C(=Nc3cccc(F)c3)S2)c1 (stereo not drawn)
Reply: 15.1 µM

Task item: Could you share which IC50 value was measured for CCN(CCCNC(=O)CCc1nc(-c2ccc(C)cc2)no1)c1cccc(C)c1 ?
Reply: 68.8 µM

Task item: Query (compound): CCCCCCc1ccc(-c2ncc(N)cn2)cc1 ; field requested: IC50
Reply: 16.6 µM

Task item: Dear colleague, I am looking for the recorded IC50 of the following compound: COc1cccc(C(=O)Nc2nnc(-c3cccs3)o2)c1
Reply: 3.87 µM

Task item: # IC50 lookup, item O=c1[nH]c(NCCCO)nc2c1C1(CCCC1)Cc1ccccc1-2
Reply: 8.77 µM

Task item: # input compound: Nc1c(C(=O)NCCc2ccccc2)c2nc3ccccc3nc2n1CCN1CCOCC1 ; wanted: its IC50
Reply: 12.4 µM

Task item: So what does the record say about IC50 for Cc1ccc(SC/C(O)=C(\C#N)c2nc3ccccc3s2)cc1 ?
Reply: 1.03 µM

----------
# pIC50 annotations
tested on: E. coli BW25113 ΔtolC growth inhibition, OD615; assay: growth inhibitors of E. coli tolC mutant, dose response, strain BW25113 ΔtolC::kan (AID 617);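 further: growth read after 20 h at 37 °C with compound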
Please express pIC50 as -log10 of the molar concentration.

In the examples that follow, each entry is paired with its recorded pIC50.
>>> measured_value("CC1CC(C)CN(C(=O)CSc2nnc(-c3ccc(Cl)s3)o2)C1 (stereo not given)")
4.76
>>> measured_value("O=C1[C@H]2[C@@H](C(=O)N1c1cc(Cl)cc(Cl)c1)[C@]1(C(=O)Nc3ccccc31)N1CCC[C@@H]21")
4.99
>>> measured_value("O=C(CC(=O)c1cc(Cl)ccc1O)c1ccccc1")
5.08
>>> measured_value("CCc1cc(C(=O)Cc2ccc(F)cc2)c(O)cc1O")
5.11

Next compound, please.
Task item: Need pIC50, item CCOC(=O)Cc1nnc2c(Nc3ccc(Cl)cc3)nc3nonc3n12
Reply: 5.43

----------
tested on: E. coli BW25113 ΔtolC growth inhibition, OD615; assay: growth inhibitors of E. coli tolC mutant, dose response, strain BW25113 ΔtolC::kan (AID 617);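 further: growth read after 20 h at 37 °C with compound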
Listed compounds paired with reported IC50

>>> measured_value("Cc1noc(C)c1COC(=O)c1cc(C)n(-c2ccccc2)c1C")
"11.5 µM"
>>> measured_value("COc1ccc(-n2c(Cc3cccn3C)nnc2SCC(=O)Nc2ccc(C)c(Cl)c2)cc1")
"14.4 µM"
>>> measured_value("CCOc1cc(C)c(Cl)cc1S(=O)(=O)n1nnc2ccccc21")
"11.6 µM"
>>> measured_value("CC1=C(C(=O)OCC(C)C)C(c2cc3c(cc2Br)OCO3)NC(=O)N1C (configuration not stated)")
"18.1 µM"
>>> measured_value("O=c1c(-c2nc3ccccc3o2)c2oc3ccccc3n2c2ccccc12")
"17.6 µM"

Task item: Which IC50 value is on record for COc1ccc(Oc2cn[nH]c2-c2ccc(O)cc2O)cc1 ?
Reply: 7.86 µM

Task item: Reported IC50 for CCN(CC)c1ccc(C(=O)Nc2cccc(F)c2)cc1 : what is it?
Reply: 8.06 µM

Task item: Suppose we examine the compound CCOC(=O)N1CCC(c2cc(=O)n3[nH]c(C)c(-c4ccc(F)cc4)c3n2)CC1 ; what IC50 value has been reported?
Reply: 1.68 µM

Task item: Given the entry CCC(C)(C)n1nnnc1CN(Cc1ccc(Cl)cc1)Cc1ccco1 , report its measured IC50.
Reply: 12.6 µM

Task item: Given the compound COc1cccc(C2/C(=C(/O)c3ccc(C)cc3)C(=O)C(=O)N2Cc2ccco2)c1 (configuration not stated) , what is its reported IC50?
Reply: 4.54 µM

Task item: Please report the recorded IC50 for Cc1ccc(C(c2nnnn2CCc2ccccc2)N2CCSCC2)cc1 (configuration not stated) .
Reply: 30.9 µM

Task item: // query IC50 value for entry O=c1c2cc3ccccc3n2cnn1Cc1ccccc1F
Reply: 17.2 µM

Task item: I'd like to know its IC50. The compound in question is COc1ccc(CCNC(=O)c2cc3sc(Cl)cc3n2C)cc1OC
Reply: 30.8 µM

Task item: Suppose we examine the compound COc1cc2ccccc2cc1C(=O)Nc1ccc(S(=O)(=O)Nc2cc(C)on2)cc1 ; what IC50 value has been reported?
Reply: 10.7 µM

----------
system: E. coli BW25113 ΔtolC growth inhibition, OD615; test: growth inhibitors of E. coli tolC mutant, dose response, strain BW25113 ΔtolC::kan (AID 617);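 further: growth read after 20 h at 37 °C with compound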
pIC50: −log10 of the molar value.
measurement_kind: pIC50

Worked examples follow.
>>> measured_value("CCC(=O)N1CCN(c2cc3c(cc2F)c(=O)c(C(=O)O)cn3CC)CC1")
"> 6.70"
>>> measured_value("CCNc1nc(NC(C)C)nc(N(C#N)CCOc2ccc(Cl)cc2Cl)n1")
5.18
>>> measured_value("O=C(Nc1cnn(Cc2ccc(Cl)cc2Cl)c1)c1noc2c1CCCC2")
5.08
>>> measured_value("Cc1nc2nc(-c3ccco3)[nH]n2c(=O)c1Cc1ccccc1")
5.22
>>> measured_value("Cc1ccc(C)c(N2CCN(C(=O)c3ccccc3Br)CC2)c1")
4.95
>>> measured_value("CCCOc1ccc2c3c(c(=O)oc2c1OCCC)CCC3")
4.84
>>> measured_value("O=c1c2ccccc2nc(SCc2cn3ccsc3n2)n1-c1ccccc1F")
4.63
>>> measured_value("CC(C)(C)n1c(O)c(C=Nc2ccc3c(c2)CCC3)c(=O)[nH]c1=O")
4.89

Task item: Requested read-out: pIC50. Entry: Clc1ccccc1OCc1nnc(-c2ccccc2Br)o1
Reply: 4.91

Task item: Look up pIC50 for this molecule: COC(=O)C1=C(CSc2nc3ccccc3o2)NC(=O)NC1c1cc(C)ccc1C (stereo unspecified)
Reply: 4.89

Task item: pIC50 for Cc1cc(N2CCC(C)CC2)nc(-n2nc(C)cc2C)n1 ?
Reply: 5.29

----------
Recorded pIC50 by entry
tested on: E. coli BW25113 ΔtolC growth inhibition, OD615; assay: growth inhibitors of E. coli tolC mutant, dose response, strain BW25113 ΔtolC::kan (AID 617);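 further: growth read after 20 h at 37 °C with compound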
Worth noting: pIC50 values are minus log10 of concentrations stated in mol/L.

These recorded examples may help you get a feel for the data.
>>> measured_value("CC1CCN(S(=O)(=O)c2ccc(Cl)cc2Br)CC1")
4.76
>>> measured_value("O=S(=O)(Nc1cccc2cccnc12)c1ccc(S(=O)(=O)N2CCCC2)cc1")
4.81
>>> measured_value("Cc1ccc(C)c(N2CCN(C(=O)c3cc4sccc4n3C)CC2)c1")
4.82
>>> measured_value("Cc1cccc(NC(=O)CSc2nnc(-c3cc(C)n(-c4ccccc4)c3C)o2)c1C")
4.85
>>> measured_value("Cc1cccc(N2CCN(C(=O)c3cc4n(n3)C(C(F)(F)F)CC(c3ccco3)N4)CC2)c1C (configuration not stated)")
5.17

Task item: Given Cn1nc(-c2ccc(N3CCOCC3)c(NC(=O)COc3ccccc3)c2)c2ccccc2c1=O , state its recorded pIC50.
Reply: 5.06

Task item: # input compound: Cc1ccc(C(=O)Nc2nc(COc3ccccc3)cs2)s1 ; wanted: its pIC50
Reply: 4.00

Task item: pIC50 for COc1ccc(-n2c(C)nc3c(cnn3-c3ccc(Cl)cc3)c2=O)cc1 ?
Reply: 4.68

Task item: For OCCN1CCN(c2nc(-c3ccccc3)c3cc(Cl)ccc3n2)CC1 , what is its reported pIC50?
Reply: 4.22

Task item: Would you mind telling me what pIC50 value was observed for CC(=O)c1sc(NC(=O)C2(F)C(F)(F)C(F)(F)C(F)(F)C(F)(F)C2(F)F)nc1C ?
Reply: 6.04

Task item: So what's the measured pIC50 for this one? CC1CCCN(S(=O)(=O)c2ccc(C(=O)Nc3nnc(-c4ccccc4Cl)o3)cc2)C1 (configuration not stated)
Reply: 6.39

Task item: # query: pIC50 of entry CCCOC(=O)/C(C(N)=NCc1ccccc1)=C(\O)OCCC
Reply: 4.79

Task item: Please report the recorded pIC50 for CCOC(=O)c1cc(C)n(S(=O)(=O)c2ccc(C)cc2)c1C .
Reply: 4.91

Task item: Which pIC50 reading was recorded for the compound CC1=CCC(COC(=O)Nc2ccccc2)CC1 (configuration not stated) ?
Reply: 4.57

Task item: Return reported pIC50; argument: Cc1cc(C)c(C#N)c(SCC(=O)OC2CCCCC2)n1
Reply: 4.72

Task item: Find the recorded pIC50 belonging to Cc1ccccc1OCCCCc1c(C)n[nH]c1C and report it.
Reply: 5.43

Task item: What value of pIC50 has been recorded for this entry: Cc1nn(-c2ccccc2)c2sc(C(=O)N(CC(=O)NC(C)(C)C)Cc3ccco3)cc12
Reply: 4.62

Task item: Name the recorded pIC50 for COc1ccc(Cn2nnnc2C(C(C)C)N2CCc3ccccc32)cc1 (configuration not stated) .
Reply: 4.90

Task item: Need pIC50, item CC1=C(C(=O)OC2CCCCCCC2)C(c2cccc(O)c2)NC(=O)N1 (configuration not stated)
Reply: 4.91
